Cited source: patent US6235753A

# measurement target: human recombinant collagenase (Homo sapiens, UniProt P03956)
# Construct: made in house; host or cells: E. coli
# Sequence (P03956 100-469): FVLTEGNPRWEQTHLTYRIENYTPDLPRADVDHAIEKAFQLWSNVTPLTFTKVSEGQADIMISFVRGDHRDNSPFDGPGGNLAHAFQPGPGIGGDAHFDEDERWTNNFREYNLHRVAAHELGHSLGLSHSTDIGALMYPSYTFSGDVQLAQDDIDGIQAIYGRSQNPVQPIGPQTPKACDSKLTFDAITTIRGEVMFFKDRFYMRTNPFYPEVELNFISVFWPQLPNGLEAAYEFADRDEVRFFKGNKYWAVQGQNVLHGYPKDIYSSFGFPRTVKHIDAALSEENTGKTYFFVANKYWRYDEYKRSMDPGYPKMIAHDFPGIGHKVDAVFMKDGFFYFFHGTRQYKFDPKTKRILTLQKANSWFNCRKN
# test: Collagenase Inhibition Assay
# Type: biochemical
pIC50: −log10 of the molar value.
measurement kind: pIC50

The measured pIC50 associated with CNC(=O)[C@@H](NC(=O)[C@H](Cc1ccc2ccccc2c1)[C@H](O)C(=O)NO)C(C)(C)C reads < 5.00
